Overview of recorded EC50 for various binders
- test-system: T1, E. coli Exonuclease I (E. coli, UniProt P04995 1-471)
- T1 construct: Exonuclease I of E. coli, from plasmid pET14b-E. coli Exonuclease I (Addgene 104552); The His tag was cut off with thrombin only for the purified protein; also called ExoI; Exol; source: E. coli BL21 (DE3) pLysS, purified (Ni-NTA, heparin); also in cell lysate (pull-down)
- T1 sequence: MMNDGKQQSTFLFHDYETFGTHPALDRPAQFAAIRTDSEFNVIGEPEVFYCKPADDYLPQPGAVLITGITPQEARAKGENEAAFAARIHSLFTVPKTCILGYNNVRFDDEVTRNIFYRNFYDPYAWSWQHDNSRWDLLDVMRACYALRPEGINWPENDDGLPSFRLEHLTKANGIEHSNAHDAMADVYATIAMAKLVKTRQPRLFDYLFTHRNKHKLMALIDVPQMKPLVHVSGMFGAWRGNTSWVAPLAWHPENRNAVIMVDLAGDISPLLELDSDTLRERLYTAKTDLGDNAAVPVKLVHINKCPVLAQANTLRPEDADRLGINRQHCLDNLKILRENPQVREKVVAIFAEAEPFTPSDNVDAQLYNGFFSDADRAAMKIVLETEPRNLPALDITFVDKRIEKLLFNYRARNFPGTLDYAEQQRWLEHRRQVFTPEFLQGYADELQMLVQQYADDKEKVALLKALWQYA
- assay-notes: fluorescence polarisation; direct fluorescence anisotropy: ExoI serially diluted from 16 µM, 50 nM fluorescein-labelled peptide, 30 min, 25 °C; 20 mM Tris-HCl pH 8.0, 100 mM NaCl, 1 mM MgCl2, 1 mM 2-mercaptoethanol, 10% glycerol
- particulars: both partners purified
Primed or numbered codes have the meaning given here. Where no end group is shown, it is not given here. [ ]: non-standard residue; d: D form. 5,6‑carboxyfluorescein = 5,6-carboxyfluorescein; Phe(4-CF3) = N[C@@H](Cc1ccc(C(F)(F)F)cc1)C(=O)O; Phe(4-Cl) = N[C@@H](Cc1ccc(Cl)cc1)C(=O)O; Pip′ = not defined here

{"binder": "{5,6‑carboxyfluorescein}-GGDFDDDIP[Phe(4-CF3)] (two glycines between the 5,6-carboxyfluorescein and the peptide; E. coli SSB-Ct, residues 171-178; F at position 8 stands for 4-CF3-Phe; numbers count on: the octapeptide (position 1 = SSB residue 171); One of Compounds 54-62 of the Supplementary Material; also called F-mSSB 4CF3-Phe8; source: synthetic peptide) [F-4CF3-Phe8 (fluorescein-labelled single mutant)]", "u": "nM", "EC50": 90}
{"binder": "{5,6‑carboxyfluorescein}-DFDDDI[Pip′]F (not fully specified) [F-Pip7 (fluorescein-labelled single mutant)]", "u": "nM", "EC50": 90}
{"binder": "{5,6‑carboxyfluorescein}-GGD[Phe(4-Cl)]DDDIPF (two glycines between the 5,6-carboxyfluorescein and the peptide; E. coli SSB-Ct, residues 171-178; F at position 2 stands for 4-Cl-Phe; numbers count on: the octapeptide (position 1 = SSB residue 171); One of Compounds 54-62 of the Supplementary Material; also called F-mSSB 4Cl-Phe2; source: synthetic peptide) [F-4Cl-Phe2 (fluorescein-labelled single mutant)]", "u": "nM", "EC50": 150}
{"binder": "{5,6‑carboxyfluorescein}-GGDFDDEIPF (two glycines between the 5,6-carboxyfluorescein and the peptide; E. coli SSB-Ct, residues 171-178; numbers count on: the octapeptide (position 1 = SSB residue 171); One of Compounds 54-62 of the Supplementary Material; also called F-mSSB Glu5; source: synthetic peptide) [F-Glu5 (fluorescein-labelled single mutant)]", "u": "nM", "EC50": 110}
